- assayed target: UniProt O60674
- Sequence (O60674 whole entry): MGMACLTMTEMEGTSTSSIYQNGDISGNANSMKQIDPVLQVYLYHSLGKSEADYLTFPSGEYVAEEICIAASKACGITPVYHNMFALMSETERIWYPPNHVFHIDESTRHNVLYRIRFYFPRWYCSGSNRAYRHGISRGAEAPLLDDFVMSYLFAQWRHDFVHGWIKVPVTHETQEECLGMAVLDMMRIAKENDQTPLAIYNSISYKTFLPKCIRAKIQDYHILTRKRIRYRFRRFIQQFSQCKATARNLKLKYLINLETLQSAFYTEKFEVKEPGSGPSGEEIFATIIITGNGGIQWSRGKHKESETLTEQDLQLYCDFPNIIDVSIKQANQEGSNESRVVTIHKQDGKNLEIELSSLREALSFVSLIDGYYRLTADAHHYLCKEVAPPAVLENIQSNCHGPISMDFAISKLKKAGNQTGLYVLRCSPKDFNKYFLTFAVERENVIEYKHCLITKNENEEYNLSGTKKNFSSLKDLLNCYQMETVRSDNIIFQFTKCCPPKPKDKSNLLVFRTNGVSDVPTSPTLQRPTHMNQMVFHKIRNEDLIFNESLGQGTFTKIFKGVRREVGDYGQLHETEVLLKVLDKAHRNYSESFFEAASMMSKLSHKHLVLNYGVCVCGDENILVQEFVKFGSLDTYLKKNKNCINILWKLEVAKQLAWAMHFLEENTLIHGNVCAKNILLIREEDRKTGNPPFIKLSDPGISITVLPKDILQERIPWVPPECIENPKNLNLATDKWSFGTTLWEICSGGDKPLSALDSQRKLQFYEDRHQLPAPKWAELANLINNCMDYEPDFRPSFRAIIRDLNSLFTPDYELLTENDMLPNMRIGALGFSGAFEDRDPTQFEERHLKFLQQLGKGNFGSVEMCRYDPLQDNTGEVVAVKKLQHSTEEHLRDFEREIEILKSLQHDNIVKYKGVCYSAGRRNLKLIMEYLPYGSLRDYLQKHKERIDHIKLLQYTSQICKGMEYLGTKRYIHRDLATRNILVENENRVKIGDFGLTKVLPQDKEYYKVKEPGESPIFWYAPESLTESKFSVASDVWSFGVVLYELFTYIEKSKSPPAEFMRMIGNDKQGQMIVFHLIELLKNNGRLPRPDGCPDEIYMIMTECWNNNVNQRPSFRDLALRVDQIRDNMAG
readout label: IC50

Query: IC50; subject: Cc1cn2c(-c3cn[nH]c3)cnc2c(Nc2cc(C(NC(C)(C)C)c3ccccn3)ns2)n1 (single isomer, unassigned; (+))
> 1 µM

----------
- assayed target: Cyclin-dependent kinase 2 (Homo sapiens, UniProt P24941)
readout label: IC50

- molecule: "Cc1cn2c(-c3cn[nH]c3)cnc2c(Nc2cc(Cc3ccccn3)ns2)n1"
  value reported: "> 500 nM"

Here is the next item to consider.
Entry under review: Cc1cn2c(-c3cn[nH]c3)cnc2c(Nc2cc(C(NC(C)(C)C)c3ccccn3)ns2)n1 (single isomer, unassigned; (+)) . Reported IC50?
> 1000 nM

----------
Listing of entries alongside the reported clearance.
- assay protocol: Clearance in monkey at 1 mg/kg, iv
- Type: ADME, organism-based, Macaca mulatta
- assay setup: rhesus monkey, in vivo
Just the number in mL/min/kg, nothing appended.

- molecule: "Cc1cn2c(-c3cn[nH]c3)cnc2c(Nc2cc(Cc3ccccn3)ns2)n1"
  clearance (mL/min/kg): 28

We next turn to a different molecule, shown below.
If you can, please state the reported clearance value of Cc1cn2c(-c3cn[nH]c3)cnc2c(Nc2cc(C(NC(C)(C)C)c3ccccn3)ns2)n1 (single isomer, unassigned; (+)) .
7.4

----------
- assayed target: Tyrosine-protein kinase Lck (Homo sapiens, UniProt P06239)
- Sequence (P06239 whole entry): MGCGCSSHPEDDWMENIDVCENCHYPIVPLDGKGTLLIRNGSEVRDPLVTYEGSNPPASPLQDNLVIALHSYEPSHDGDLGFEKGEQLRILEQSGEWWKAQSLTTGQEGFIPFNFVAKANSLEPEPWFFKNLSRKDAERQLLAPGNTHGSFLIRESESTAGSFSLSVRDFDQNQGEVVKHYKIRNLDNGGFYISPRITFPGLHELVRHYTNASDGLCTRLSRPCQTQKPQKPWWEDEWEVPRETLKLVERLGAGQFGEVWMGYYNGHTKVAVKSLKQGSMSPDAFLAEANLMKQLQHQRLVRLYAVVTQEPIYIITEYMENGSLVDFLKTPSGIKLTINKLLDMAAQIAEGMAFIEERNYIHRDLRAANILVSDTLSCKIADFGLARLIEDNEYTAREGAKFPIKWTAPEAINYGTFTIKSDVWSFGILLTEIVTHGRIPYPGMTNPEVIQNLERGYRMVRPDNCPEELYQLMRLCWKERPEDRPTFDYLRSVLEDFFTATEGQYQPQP
readout label: pIC50
Reminder that pIC50 means the negative base-10 logarithm of the concentration expressed in mol/L.

Form field: reported pIC50 of Cc1cn2c(-c3cn[nH]c3)cnc2c(Nc2cc(C(NC(C)(C)C)c3ccccn3)ns2)n1 (single isomer, unassigned; (+))
7.21

----------
- assay protocol: Intrinsic clearance in cryopreserved dog hepatocytes assessed per million cells
- Type: ADME, cell-based, Canis lupus familiaris, Hepatocyte
- assay setup: read-out: CLH
readout label: hepatocyte CLint (µL/min/1e6 cells)
Please state the figure in µL/min/1e6 cells; there is no need to write the unit.

May I ask what hepatocyte CLint has been recorded for Cc1cn2c(-c3cn[nH]c3)cnc2c(Nc2cc(C(NC(C)(C)C)c3ccccn3)ns2)n1 (single isomer, unassigned; (+)) ?
5.1

----------
- assayed target: Serine/threonine-protein kinase PLK3 (Homo sapiens)
- Sequence (Q9H4B4 whole entry): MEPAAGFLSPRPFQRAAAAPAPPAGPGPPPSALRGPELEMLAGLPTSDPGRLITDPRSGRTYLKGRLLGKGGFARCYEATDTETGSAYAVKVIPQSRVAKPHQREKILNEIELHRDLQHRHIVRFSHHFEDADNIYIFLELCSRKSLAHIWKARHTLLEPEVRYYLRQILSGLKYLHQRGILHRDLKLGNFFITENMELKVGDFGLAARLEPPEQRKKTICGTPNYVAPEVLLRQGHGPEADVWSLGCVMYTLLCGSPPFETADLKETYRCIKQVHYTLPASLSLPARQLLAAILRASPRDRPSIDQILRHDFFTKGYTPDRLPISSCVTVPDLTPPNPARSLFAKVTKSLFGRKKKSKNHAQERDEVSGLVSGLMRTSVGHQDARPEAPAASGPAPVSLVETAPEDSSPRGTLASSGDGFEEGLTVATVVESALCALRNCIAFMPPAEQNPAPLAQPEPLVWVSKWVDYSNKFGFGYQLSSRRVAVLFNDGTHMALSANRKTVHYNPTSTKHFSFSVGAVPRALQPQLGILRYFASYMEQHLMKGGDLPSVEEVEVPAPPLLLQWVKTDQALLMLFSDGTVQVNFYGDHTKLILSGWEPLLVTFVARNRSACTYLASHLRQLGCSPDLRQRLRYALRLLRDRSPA
readout label: IC50

Look up IC50 for this compound: Cc1cn2c(-c3cn[nH]c3)cnc2c(Nc2cc(C(NC(C)(C)C)c3ccccn3)ns2)n1 (single isomer, unassigned; (+))
> 1000 nM

----------
- assayed target: Aurora kinase B (Homo sapiens, UniProt Q96GD4)
- Sequence (Q96GD4 whole entry): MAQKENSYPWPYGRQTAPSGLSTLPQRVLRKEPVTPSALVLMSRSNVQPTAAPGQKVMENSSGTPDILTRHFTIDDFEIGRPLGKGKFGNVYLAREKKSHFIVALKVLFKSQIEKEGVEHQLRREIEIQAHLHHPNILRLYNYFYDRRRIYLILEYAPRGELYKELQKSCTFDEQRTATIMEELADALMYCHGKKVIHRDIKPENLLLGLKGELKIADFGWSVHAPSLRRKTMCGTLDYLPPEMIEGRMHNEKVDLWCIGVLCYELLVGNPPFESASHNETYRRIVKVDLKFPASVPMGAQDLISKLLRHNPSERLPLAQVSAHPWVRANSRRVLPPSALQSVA
- assay protocol: Inhibition of Aurora B in human HCT116 cells assessed as reduction in phosphorylation of Histone H3 at Ser10 residue incubated for 1 hr by Hoechst 33342 dye-based immunofluorescence microscopic method
pEC50 by entry:
Scale for pEC50: -log10 of concentration given in mol/L; no unit attached.

Observe how each entry below is paired with its result.
- structure smiles: "Cc1cn2c(-c3cn[nH]c3)cnc2c(Nc2cc(Cn3cccc(C)c3=O)ns2)n1"
  assayed target: "Aurora kinase B (Homo sapiens, UniProt Q96GD4)"
  pEC50: 6.31
- structure smiles: "Cc1cn2c(-c3cn[nH]c3)cnc2c(Nc2cc(Cn3cccn3)ns2)n1"
  assayed target: "Aurora kinase B (Homo sapiens, UniProt Q96GD4)"
  pEC50: 6.74
- structure smiles: "Cc1cn2c(-c3cn[nH]c3)cnc2c(Nc2cc(Cc3cccc(F)n3)ns2)n1"
  assayed target: "Aurora kinase B (Homo sapiens, UniProt Q96GD4)"
  pEC50: 7.00
- structure smiles: "Cc1cn2c(-c3cn[nH]c3)cnc2c(Nc2cc(Cc3cccc(C(=O)N4CCCCC4)n3)ns2)n1"
  assayed target: "Aurora kinase B (Homo sapiens, UniProt Q96GD4)"
  pEC50: 6.61

Attention now turns to another entry.
Record Cc1cn2c(-c3cn[nH]c3)cnc2c(Nc2cc(Cn3cccc3)ns2)n1 : what is its pEC50 with Aurora kinase B (Homo sapiens, UniProt Q96GD4)?
6.28

----------
- assay protocol: Volume of distribution in mouse at 3 mg/kg, iv
- Type: ADME, organism-based
- assay setup: in vivo
readout label: Vd (L/kg)
Quick note: give the figure in L/kg, leave out the unit.

- compound: "Cc1cn2c(-c3cn[nH]c3)cnc2c(Nc2cc(Cc3ccccn3)ns2)n1"
  Vd (L/kg): 1.6

Turning to the following compound.
Request the reported Vd associated with Cc1cn2c(-c3cn[nH]c3)cnc2c(Nc2cc(C(NC(C)(C)C)c3ccccn3)ns2)n1 (single isomer, unassigned; (+))
5.3

----------
Readings of pIC50 for the listed compounds
- assayed target: Serine/threonine-protein kinase Nek2 (Homo sapiens, UniProt P51955)
- Sequence (P51955 whole entry): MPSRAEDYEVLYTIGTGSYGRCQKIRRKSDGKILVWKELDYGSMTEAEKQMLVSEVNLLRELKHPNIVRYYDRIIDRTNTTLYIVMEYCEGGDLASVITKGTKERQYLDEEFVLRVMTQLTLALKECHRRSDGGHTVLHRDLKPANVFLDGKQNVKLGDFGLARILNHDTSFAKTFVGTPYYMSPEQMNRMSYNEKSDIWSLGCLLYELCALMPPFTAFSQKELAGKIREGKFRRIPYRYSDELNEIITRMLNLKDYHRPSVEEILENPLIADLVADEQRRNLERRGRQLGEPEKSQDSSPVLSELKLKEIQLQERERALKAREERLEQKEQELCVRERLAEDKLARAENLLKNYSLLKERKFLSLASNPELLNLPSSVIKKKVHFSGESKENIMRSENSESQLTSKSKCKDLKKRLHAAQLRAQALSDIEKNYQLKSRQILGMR
pIC50: −log10 of the molar value.

- structure smiles: "Cc1cn2c(-c3cn[nH]c3)cnc2c(Nc2cc(Cc3ccccn3)ns2)n1"
  assayed target: "Serine/threonine-protein kinase Nek2 (Homo sapiens, UniProt P51955)"
  pIC50: "< 6.30"

Moving on to another compound below.
Serine/threonine-protein kinase Nek2 (Homo sapiens, UniProt P51955) / pIC50 / CCN(CCO)Cc1cc(Nc2nc(C)cn3c(-c4cn[nH]c4)cnc23)sn1 : value?
< 6.30

----------
- assay protocol: Volume of distribution in rat at 1 mg/kg, iv
- Format: ADME, organism-based
- assay setup: in vivo
readout label: Vd (L/kg)
Kindly answer with a numeric value in L/kg, unit omitted.

Consider the compound Cc1cn2c(-c3cn[nH]c3)cnc2c(Nc2cc(Cc3ccccn3)ns2)n1 and give its measured Vd.
0.7

----------
- assay protocol: Intrinsic clearance in cryopreserved human hepatocytes assessed per million cells
- Type: ADME, cell-based, Hepatocyte
- assay setup: read-out: CLH
readout label: hepatocyte CLint (µL/min/1e6 cells)
# output: bare number, implied unit µL/min/1e6 cells

What value of hepatocyte CLint has been recorded for this entry: Cc1cn2c(-c3cn[nH]c3)cnc2c(Nc2cc(C(NC(C)(C)C)c3ccccn3)ns2)n1 (single isomer, unassigned; (+))
11.8

----------
- assay protocol: Oral bioavailability in mouse at 50 mg/kg
- Assay type: ADME, organism-based
- assay setup: in vivo
The compounds listed here are annotated with their bioavailability.
Write down the numeric answer in % and omit the unit.

- compound: "Cc1cn2c(-c3cn[nH]c3)cnc2c(Nc2cc(Cc3ccccn3)ns2)n1"
  value reported: 77

Now, please, on to the next compound.
Value lookup for bioavailability; key = Cc1cn2c(-c3cn[nH]c3)cnc2c(Nc2cc(C(NC(C)(C)C)c3ccccn3)ns2)n1 (single isomer, unassigned; (+))
64

----------
Below is a list of entries, each paired with its recorded Vd value.
- assay protocol: Volume of distribution in dog at 1 mg/kg, iv
- Assay type: ADME, organism-based, Canis lupus familiaris
- assay setup: in vivo
Just the number please, in L/kg, no unit attached.

- compound: "Cc1cn2c(-c3cn[nH]c3)cnc2c(Nc2cc(C(NC(C)(C)C)c3ccccn3)ns2)n1 (single isomer, unassigned; (+))"
  unit of measurement: "L/kg"
  Vd: 3.7

Now consider a different compound.
What value of measured Vd is listed for Cc1cn2c(-c3cn[nH]c3)cnc2c(Nc2cc(Cc3ccccn3)ns2)n1 ?
0.2

----------
- assay protocol: AUC (0 to 24 hrs) in rat at 30 mg/kg, po
- Type: ADME, organism-based
- Set-up: time < 24 hr, dose 30 mg/kg, route oral
- assay setup: in vivo
readout label: AUC(0-t) at 24 h (µM·h)
Write the value in µM·h as a bare number.

Sample Cc1cn2c(-c3cn[nH]c3)cnc2c(Nc2cc(C(NC(C)(C)C)c3ccccn3)ns2)n1 (single isomer, unassigned; (-)) — what was its AUC(0-t) at 24 h?
39

----------
Notes on IC50 obtained with Aurora kinase A (Homo sapiens, UniProt O14965).
Sequence (O14965 whole entry): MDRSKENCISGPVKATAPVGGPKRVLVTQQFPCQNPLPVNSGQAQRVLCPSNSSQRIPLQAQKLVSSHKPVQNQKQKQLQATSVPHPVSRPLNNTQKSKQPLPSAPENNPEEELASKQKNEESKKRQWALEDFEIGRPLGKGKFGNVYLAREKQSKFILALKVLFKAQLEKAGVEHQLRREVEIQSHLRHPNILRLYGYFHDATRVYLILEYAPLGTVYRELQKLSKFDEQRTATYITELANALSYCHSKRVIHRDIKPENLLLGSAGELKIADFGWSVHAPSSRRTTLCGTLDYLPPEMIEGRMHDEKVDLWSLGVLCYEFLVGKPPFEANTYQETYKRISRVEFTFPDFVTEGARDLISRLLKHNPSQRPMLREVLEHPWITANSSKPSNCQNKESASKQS

- compound: "Cc1ccc(Cc2cc(Nc3nc(C)cn4c(-c5cn[nH]c5)cnc34)sn2)nc1"
  value reported: "< 4 nM"
- compound: "Cc1cn2c(-c3cn[nH]c3)cnc2c(Nc2cc(Cn3cccc3)ns2)n1"
  value reported: "< 4 nM"
- compound: "Cc1cn2c(-c3cn[nH]c3)cnc2c(Nc2cc(Cc3cccc(CN4CCCCC4)n3)ns2)n1"
  value reported: "< 4 nM"
- compound: "Cc1cn2c(-c3cn[nH]c3)cnc2c(Nc2cc(Cc3cnccn3)ns2)n1"
  value reported: "< 4 nM"
- compound: "CCN(CCO)Cc1cc(Nc2nc(C)cn3c(-c4cn[nH]c4)cnc23)sn1"
  value reported: "< 4 nM"

Test system Aurora kinase A (Homo sapiens, UniProt O14965); read-out IC50; what value for Cc1cn2c(-c3cn[nH]c3)cnc2c(Nc2cc(C(NC(C)(C)C)c3ccccn3)ns2)n1 (single isomer, unassigned; (+)) ?
≤ 4 nM

Try the compound Cc1cn2c(-c3cn[nH]c3)cnc2c(Nc2cc(C(NC(C)(C)C)c3ccccn3)ns2)n1 (single isomer, unassigned; (-))
≤ 4 nM

Please give the result for Cc1cn2c(-c3cn[nH]c3)cnc2c(Nc2cc(C(c3ccccn3)N3CCCC3)ns2)n1 (racemic) too.
< 4 nM
